test system: ZEAMA Sileno; test: Seed treatment with safener; post-emergence herbicide application; format: in vivo, maize; settings: HER dose 32 g a.i./ha, Cyprosulfamide seed treatment 0.5 g a.i./kg seed, Final assessment
Assign condition met to entries whose HER effect + SAF (crop damage with safener) meets or exceeds 7%; assign condition not met to the rest.

- compound: "COCCOC(=O)C1C=CC(NC(=O)C2(C(F)(F)F)CC(c3cc(F)cc(C#N)c3)=NO2)C1 (stereo not drawn)"
  experimentalTarget: "ZEAMA Sileno"
  discreteLabel: "condition met"
- compound: "COC(=O)C1C=CC(NC(=O)C2(C)CC(c3cc(F)cc(F)c3)=NO2)C1 (stereo not drawn)"
  experimentalTarget: "ZEAMA Sileno"
  discreteLabel: "condition met"
- compound: "CC1(C(=O)NC2CC=C(C(=O)NS(C)(=O)=O)C2)CC(c2cc(F)cc(F)c2)=NO1 (mixture of isomers)"
  experimentalTarget: "ZEAMA Sileno"
  discreteLabel: "condition met"
- compound: "CC1(C(=O)NC2C=CC(C(=O)OCCSC(F)(F)F)C2)CC(c2cc(F)cc(F)c2)=NO1 (stereo not drawn)"
  experimentalTarget: "ZEAMA Sileno"
  discreteLabel: "condition not met"
- compound: "C=CC1(C(=O)NC2COC(C(=O)OCCOC)C2)CC(c2cc(F)cc(F)c2)=NO1 (mixture of isomers)"
  experimentalTarget: "ZEAMA Sileno"
  discreteLabel: "condition not met"

Ask | Tell me whether HER effect + SAF (crop damage with safener) is at least 7% here: COC(=O)C1C=CC(NC(=O)C2(C)CC(c3cc(Cl)cc(C#N)c3)=NO2)C1 (mixture of isomers)
Reply | condition not met

Ask | Check if HER effect + SAF (crop damage with safener) >= 7% (inclusive). Item: C=CC1(C(=O)NC2COC(C(=O)OC)C2)CC(c2cc(C)cc(F)c2)=NO1 (mixture of isomers)
Reply | condition not met

Ask | Kindly determine if HER effect + SAF (crop damage with safener) recorded for CC1(C(=O)NC2C=CC(C(=O)OCCSCc3ccccc3)C2)CC(c2cc(F)cc(F)c2)=NO1 (stereo not drawn) is above or exactly 7%.
Reply | condition met
